Below, each entry is listed with its recorded Quantum yield for the generation of singlet oxygen Φ(1O2).
Assay type: physicochemical
Details: air-saturated CH3OH, ± SD
metric: Quantum yield for the generation of singlet oxygen Φ(1O2)

[[record]]
smiles_representation = "CN1CCC(C)(C)c2cc3c(cc21)[Se]c1cc2c(cc1=C3c1ccc(C(=S)N3CCCCC3)s1)C(C)(C)CC[N+]=2C.[Cl-]"
val = "0.64 ± 0.03"

[[record]]
smiles_representation = "CN1CCC(C)(C)c2cc3c(cc21)[Se]c1cc2c(cc1=C3c1ccc(C(=O)N3CCCCC3)s1)C(C)(C)CC[N+]=2C.[Cl-]"
val = "0.95 ± 0.03"

[[record]]
smiles_representation = "C[N+]1=c2cc3c(cc2C(C)(C)CC1)=C(c1ccc(C(=S)N2CCCCC2)s1)c1cc2c4c(c1[Se]3)CCCN4CCC2.[Cl-]"
val = "0.54 ± 0.03"

[[record]]
smiles_representation = "C[N+]1=c2cc3c(cc2C(C)(C)CC1)=C(c1ccc(C(=O)N2CCCCC2)s1)c1cc2c4c(c1[Se]3)CCCN4CCC2.[Cl-]"
val = "0.64 ± 0.03"

